# tested_target: T1, OSBZ8 (Oryza sativa, UniProt Q40645 1-360)
# T1 sequence: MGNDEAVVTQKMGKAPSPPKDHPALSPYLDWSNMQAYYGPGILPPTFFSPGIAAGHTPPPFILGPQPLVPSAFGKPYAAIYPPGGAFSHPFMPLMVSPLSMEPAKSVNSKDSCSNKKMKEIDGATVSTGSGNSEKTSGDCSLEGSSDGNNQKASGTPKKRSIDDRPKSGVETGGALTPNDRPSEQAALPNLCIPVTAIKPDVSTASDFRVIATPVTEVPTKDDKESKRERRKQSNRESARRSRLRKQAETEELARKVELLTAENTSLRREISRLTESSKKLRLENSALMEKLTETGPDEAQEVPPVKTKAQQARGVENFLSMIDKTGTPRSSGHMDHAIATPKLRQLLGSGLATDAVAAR
# test_summary: EMSA; Chemiluminescent Nucleic Acid Detection Module Kit (Thermo) per manufacturer; binding buffer, salt, pH and temperature not stated
# conditions: protein: recombinant; tags: His (pCold vector); chain copies: 2; label: biotin

- binder: "Mutant-13 (dsDNA) DNA 1: CTTCATCTGGACACTGGGCGCTTGGCAAGTTGA DNA 2: TCAACTTGCCAAGCGCCCAGTGTCCAGATGAAG"
  binding result: "no binding"
- binder: "Probe 7 (dsDNA) DNA 1: TCCTACATACCCTCAGCACGTAAAGCGAGAAGTTTTATCT DNA 2: AGATAAAACTTCTCGCTTTACGTGCTGAGGGTATGTAGGA"
  binding result: "no binding"
- binder: "Mutant-11 (dsDNA) DNA 1: AATAAAAATGGTGGGACCCGGGCCCCACAAGTCATTCT DNA 2: AGAATGACTTGTGGGGCCCGGGTCCCACCATTTTTATT"
  binding result: "no binding"
